# reported log10 Tmax; entries follow
assay.remarks: Mean time to peak plasma concentration in Swiss albino male mice at […] per compound (administered orally in a mixture of 5 compounds to 3 mice) assessed by LCMS/MS.
Format: ADME, organism-based
condition.context: mouse, po
The common logarithm of Tmax in min is what is listed.

>  <line.notation>
CC(C)c1nn2cnc(-c3ccc(F)c(C(F)(F)F)c3)cc2c1-c1ccc2[nH]ncc2c1F

>  <reading>
2.08

$$$$
>  <line.notation>
CC(C)Oc1cc(-c2cn3c(-c4ccc5[nH]ncc5c4F)c(C(F)(F)F)nc3cn2)ccc1F

>  <reading>
1.60

$$$$
>  <line.notation>
Oc1cc(F)c(-c2c(C3CC3)nc3cnc(-c4ccc(F)c(C(F)(F)F)c4)cn23)c(F)c1

>  <reading>
1.18

$$$$

Bench note: what log10 Tmax did Fc1c(-c2c(C(F)(F)F)nc3cnc(-c4cccc(OC(F)(F)F)c4)cn23)ccc2[nH]ncc12 show? 1.60

Bench note: what log10 Tmax did CC(C)c1nn2cnc(-c3ccc(F)c(C(F)(F)F)c3)cc2c1-c1c(F)cc(O)cc1F show? 1.30

Bench note: what log10 Tmax did CCc1nc2cnc(-c3ccc(F)c(C(F)(F)C(F)(F)F)c3)cn2c1-c1c(F)cc(O)cc1F show? 1.18

----------
assay.remarks: Partition coefficient of compound between n-octanol and PBS (pH7.4)
Assay type: physicochemical
condition.context: octanol/water, pH 7.4
# reported Lipophilicity; entries follow

>  <line.notation>
COc1ccc(-c2c(C)nc3ccc(-c4cccc(C(F)(F)F)c4)cn23)cc1O

>  <reading>
4.92 =

$$$$

Bench note: what Lipophilicity did CC(C)c1cc(-c2cn3c(-c4ccc5[nH]ncc5c4F)c(C4CC4)nc3cn2)ccc1F show? 6.53 =

Bench note: what Lipophilicity did COc1cc(-c2cnc3cnc(-c4cccc(C(C)C)c4)cn23)ccc1O show? 4.75 =

Bench note: what Lipophilicity did CC(C)c1nc2cnc(-c3ccc(F)c(C(F)(F)F)c3)cn2c1-c1ccc2[nH]ncc2c1F show? 4.19 =

Bench note: what Lipophilicity did CCc1nc2cnc(-c3cccc(C(F)(F)F)c3)cn2c1-c1ccc(OC)c(O)c1 show? 3.97 =

Bench note: what Lipophilicity did CCc1nc2cnc(-c3cccc(C(F)(F)F)c3)cn2c1-c1ccc(O)cc1F show? 3.76 =

Bench note: what Lipophilicity did COc1ccc(-c2cnc3cnc(-c4cccc(C(C)C)c4)cn23)cc1OC show? 4.92 =

Bench note: what Lipophilicity did Oc1ccc(-c2cnn3ccc(-c4cccc(C(F)(F)F)c4)cc23)c(F)c1 show? 4.27 =

----------
Test system: Schistosoma mansoni
assay.remarks: Concentration required to kill 50% of 42 day old worms 5 days after drug treatment.
Type: functional, organism-based
condition.context: Puerto Rican, 120 h
pEC50: −log10 of the molar value.
Lab note: compare pEC50 against 7. Equal or greater, write 1 (yes). Smaller, write 0 (no).

Worked set:
>  <line.notation>
Cc1nc2cnc(-c3cccc(C(F)(F)C(F)(F)F)c3)cn2c1-c1c(F)cc(O)cc1F

>  <label>
1 (yes)

$$$$
>  <line.notation>
CCc1nc2cnc(-c3ccc(F)c(C(F)(F)F)c3)cn2c1-c1c(F)cc(O)cc1F

>  <label>
1 (yes)

$$$$
>  <line.notation>
CC(C)c1cc(-c2cn3c(-c4ccc5[nH]ncc5c4F)c(C(F)(F)F)nc3cn2)ccn1

>  <label>
1 (yes)

$$$$
>  <line.notation>
CC1(c2nc3cnc(-c4ccc(F)c(C(F)(F)F)c4)cn3c2-c2c(F)cc(O)cc2F)CC1

>  <label>
1 (yes)

$$$$

Check this compound for pEC50 at or above 7: CCc1nc2cnc(-c3ccc(F)c(C(C)C)c3)cn2c1-c1ccc2[nH]ncc2c1F 1 (yes)

Check this compound for pEC50 at or above 7: COc1cc(-c2cnc3cnc(-c4cccc(C(C)C)c4)cn23)ccc1O 0 (no)
